Kb values, listed per item
Target: bradykinin receptors in Rat Uterus (Rattus norvegicus, UniProt P25023)
Construct: describes the Rat Uterus assay used to analyze the present compounds; from tissue; host or cells: isolated rat uterus
Sequence (P25023 1-396): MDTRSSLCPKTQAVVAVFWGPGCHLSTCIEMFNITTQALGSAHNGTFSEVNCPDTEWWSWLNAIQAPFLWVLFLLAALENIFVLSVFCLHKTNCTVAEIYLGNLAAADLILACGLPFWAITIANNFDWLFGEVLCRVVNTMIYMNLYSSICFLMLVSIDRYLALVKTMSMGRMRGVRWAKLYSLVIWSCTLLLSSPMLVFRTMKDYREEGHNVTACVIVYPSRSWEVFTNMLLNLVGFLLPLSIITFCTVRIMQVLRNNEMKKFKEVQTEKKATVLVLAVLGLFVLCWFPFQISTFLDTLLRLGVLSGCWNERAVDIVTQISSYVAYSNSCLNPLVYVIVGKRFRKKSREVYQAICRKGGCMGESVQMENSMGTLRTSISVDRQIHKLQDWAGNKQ
Experiment: Rat Uterus functional assay
Type: cell-based
Observation Type: Kb (nM)

Compound: N=C(N)NCCC[C@H](NC(=O)[C@H](Cc1c(F)c(F)c(F)c(F)c1F)NC(=O)[C@@H](Cc1c(F)c(F)c(F)c(F)c1F)NC(=O)[C@H](CO)NC(=O)[C@@H](NC(=O)CNC(=O)[C@@H]1C[C@@H](O)CN1C(=O)[C@@H]1CCCN1C(=O)[C@H](CCCNC(=N)N)NC(=O)[C@@H](N)CCCNC(=N)N)C1Cc2ccccc2C1)C(=O)O [Compound B10230, Arg-Arg-Pro-Hyp-Gly-Igl-Ser-Df5f-f5f-Arg]
Observation Type: Kb
Result Value: 1580
--
Compound: N=C(N)NCCC[C@H](NC(=O)[C@@H]1C[C@@H]2CCCC[C@@H]2N1C(=O)[C@@H](Cc1c(F)c(F)c(F)c(F)c1F)NC(=O)[C@H](CO)NC(=O)[C@@H](NC(=O)CNC(=O)[C@@H]1C[C@@H](O)CN1C(=O)[C@@H]1CCCN1C(=O)[C@H](CCCNC(=N)N)NC(=O)[C@@H](CCCNC(=N)N)NC(=O)C12CC3CC(CC(C3)C1)C2)C1Cc2ccccc2C1)C(=O)O [Compound B10154]
Observation Type: Kb
Result Value: 6.31

---

target: bradykinin receptors in Rat Uterus (Rattus norvegicus); construct: describes the Rat Uterus assay used to analyze the present compounds; from tissue; host or cells: isolated rat uterus; test: Rat Uterus functional assay; type: cell-based
Where a SMILES comes first, the peptide text is derived from it. [ ]: non-standard residue; d: D form. dPhe(F5) = N[C@H](Cc1c(F)c(F)c(F)c(F)c1F)C(=O)O; Oic = O=C(O)[C@@H]1C[C@@H]2CCCC[C@@H]2N1; Igl = N[C@H](C(=O)O)C1Cc2ccccc2C1; Hyp = O=C(O)[C@@H]1C[C@@H](O)CN1; NMeF = CN[C@@H](Cc1ccccc1)C(=O)O

Molecule: N=C(N)NCCC[C@@H](N)C(=O)N[C@@H](CCCNC(=N)N)C(=O)N1CCC[C@H]1C(=O)N1C[C@H](O)C[C@H]1C(=O)NCC(=O)N[C@@H](Cc1cccs1)C(=O)N[C@@H](CO)C(=O)N[C@H](Cc1c(F)c(F)c(F)c(F)c1F)C(=O)N(CC(=O)N[C@@H](CCCNC(=N)N)C(=O)O)C1CCCCCC1 [Compound B10204]
Result Unit: µM
Kb: 0.631
//
Molecule: N=C(N)NCCC[C@@H](N)C(=O)N[C@@H](CCCNC(=N)N)C(=O)N1CCC[C@H]1C(=O)N1C[C@H](O)C[C@H]1C(=O)NCC(=O)N[C@@H](Cc1c(F)c(F)c(F)c(F)c1F)C(=O)N[C@@H](CO)C(=O)N[C@@H](C(=O)N1[C@H](C(=O)N[C@@H](CCCNC(=N)N)C(=O)O)C[C@@H]2CCCC[C@@H]21)C1Cc2ccccc2C1 [Compound B10164]
Result Unit: µM
Kb: 0.01
//
Molecule: CN(C(=O)[C@H](CCCNC(=N)N)NC(=O)[C@H](N)CCCNC(=N)N)[C@@H](Cc1ccccc1)C(=O)N1C[C@H](O)C[C@H]1C(=O)NCC(=O)N[C@H](C(=O)N[C@@H](CO)C(=O)N[C@H](Cc1c(F)c(F)c(F)c(F)c1F)C(=O)N1[C@H](C(=O)N[C@@H](CCCNC(=N)N)C(=O)O)C[C@@H]2CCCC[C@@H]21)C1Cc2ccccc2C1 [Compound B10150] (H-[dR]R[NMeF][Hyp]G[Igl]S[dPhe(F5)][Oic]R-OH; N-terminus and C-terminus assumed)
Result Unit: µM
Kb: 0.00794
